Exercise: state measured TGI for each of the compounds provided.
- System: SK-MEL-28 melanoma
- Assay notes: NCI tumour cell line growth inhibition, 48 h
Quick reminder: number only, in µM, skip the unit.

Value (TGI, SK-MEL-28 melanoma) for record "O=S(=O)(NC1=NCCN1C(=S)SN1CCn2c1nsc2=S)c1ccc(OC(F)(F)F)cc1" = 64

Record CO[C@H](C(=O)[C@@H](O)[C@@H](C)O)[C@@H]1Cc2cc3cc(O[C@H]4C[C@@H](O[C@H]5C[C@@H](O)[C@H](O)C(C)O5)[C@H](O)C(C)O4)c(C)c(O)c3c(O)c2C(=O)[C@H]1O[C@H]1C[C@@H](O[C@H]2C[C@@H](O[C@H]3C[C@](C)(O)C(=O)C(C)O3)[C@@H](O)C(C)O2)[C@H](O)C(C)O1 (some centres not stated) / SK-MEL-28 melanoma, TGI recorded as 0.203

Hey, SK-MEL-28 melanoma data for "C#Cc1ccc(-n2c(/C=C/c3ccc(C(F)(F)F)cc3)nc3ncccc3c2=O)cc1" : TGI came out at 3.26

---

- Tested on: SR leukemia
- Assay notes: NCI tumour cell line growth inhibition, 48 h
Value type: TGI (µM)
State just the number; it will be interpreted in µM.

get_value(item= "O=C1C(=O)N(c2ccc(Cl)cc2Cl)C(=O)C(=O)C1c1nc2ccccc2s1" , readout=TGI) returns 79.2

GET /value?item= "COC1=CC(c2ccc[nH]2)=N/C1=C\c1[nH]c(C)c(C(=O)OC(C)C)c1C" &field=TGI returns 0.291

Briefly, TGI measured for "O=S(=O)(NC1=NCCN1C(=S)SN1CCn2c1nsc2=S)c1ccc(OC(F)(F)F)cc1" : 5.76

Given item "O=C1/C(=C/c2ccccc2)CN(C(=O)C(Cl)(Cl)Cl)C/C1=C\c1ccccc1" , the value recorded as its TGI is 7.1

// sample CC[C@@]1(O)C[C@H](OC2CC(N(C)C)C(O)C(C)O2)c2c(O)c3c(c(O)c2[C@H]1OC1CC(N(C)C)C(O)C(C)O1)C(=O)c1cccc(O)c1C3=O (some centres undefined) , its TGI was 0.0273

Per the records, this compound ( "CCN(CC)CCC(=O)Nc1ccc2c(c1)C(=O)c1ccc(NC(=O)CCN(CC)CC)cc1C2=O" ) has TGI equal to 14.5

Record Nc1ccccc1SC(C[N+](=O)[O-])c1ccc2c(c1)OCO2 (centres undefined) , field TGI: 4.82

---

- Tested on: EKVX NSCLC
- Assay notes: NCI tumour cell line growth inhibition, 48 h; in the data active means GI50 below about 0.43 µM; inactive means the rest
Return exactly one item of true (active), false (inactive)

Tell me the recorded outcome of this test for CSc1nc2c(c(=O)[nH]1)N=C1c3ccccc3C(=O)C1C(c1ccccc1)N2 (stereo not drawn) . false

Entry CCC(CO)Nc1nc2ccc(Cl)cc2c2ccccc12 (stereo not drawn) : call = ? false

Recorded test outcome, item "CCCCCN(CCCCC)CCCNc1c2c(nc3ccc(Cl)cc13)CCCC2" false

Hi team, can someone confirm the assay call for O=C1CC(c2ccc3c(c2)OCO3)Nc2ccccc21 (stereo not drawn) ? false

Status in this test for CCCCOC(=O)C1OC(O[C@H]2CCC3(C)C(CCC4(C)C3CC=C3C5CC(C)(C)CCC5(C(=O)O)CC[C@]34C)C2(C)C)C(OC2OC(CO)C(O)C(O)C2O)C(OC2OC(CO)C(O)C(O)C2O)C1O (stereo partly drawn) ? false

Please indicate how the test categorized "O=C([O-])CC(=O)[O-].O=C([O-])CC(=O)[O-].[K+].[Pd+2]" . false

Hello, I am checking results. What call was entered for NC(Cc1c[nH]c2c(O)cccc12)C(=O)O (stereo not drawn) ? false

Hi team, can someone confirm the assay call for "CC(C)CCC[C@@H](C)[C@H]1CC[C@H]2[C@@H]3CC=C4C[C@@H](C(C(=O)O)C(=O)O)CC[C@]4(C)[C@H]3CC[C@]12C" ? true

What classification did "COc1ccc2c(c1)/C(=C/c1c(C)nc3sc(C)nn13)C(=O)N2" end up with in this test? false

Hi team, can someone confirm the assay call for "CC1(C)CCc2c(c3c(c4c(=O)c(O)c(-c5ccc(O)cc5)oc24)OC(C)(C)CC3)O1" ? false

Could you kindly confirm the outcome this assay logged for "O=S(=O)(NC1=NCCN1C(=S)SN1CCn2c1nsc2=S)c1ccc(OC(F)(F)F)cc1" ? false

Outcome logged for "Clc1ccc2c(NCCCCNc3nc(N4CCCCC4)nc4ccccc34)ccnc2c1" in this assay: false

GET /call?item= CCCNC1=C2CC(C)CC(OC)[C@@H](O)[C@H](C)/C=C(\C)C(OC(N)=O)C(OC)/C=C\C=C(/C)C(=O)NC(=CC1=O)C2=O (stereo partly drawn) returns the recorded outcome of this test. false

---

Would you mind telling me the reported TGI of each entry?
- System: HT29 colon
- Assay notes: NCI tumour cell line growth inhibition, 48 h

Reported TGI ( "O=C(Nc1ccccc1)NS(=O)(=O)c1ccc(-n2nc3c(c2-c2cccs2)Cc2ccccc2-3)cc1" ) = > 100 µM

// NC(Cc1c[nH]c2c(O)cccc12)C(=O)O (stereo unspecified) : TGI value = > 100 µM

TGI in this record for "COc1cc(/C=C2\S/C(=N/Nc3nc(-c4ccc(Br)cc4)cs3)NC2=O)cc(OC)c1OC" : 32.5 µM

Data point: "COc1ccc2c(c1)/C(=C/c1c(C)nc3sc(C)nn13)C(=O)N2" ; TGI = > 100 µM

Field TGI (entry Clc1cc(OC2C3CC4CC(C3)CC2C4)nc(Cl)n1 (stereo unspecified) ) reads 30.5 µM

For reference, reported TGI for "O=C(NNC(=O)c1ccccc1SSc1ccccc1C(=O)NNC(=O)c1ccccc1S)c1ccccc1S" stands at > 95.2 µM

"CN(C)C(=N)c1ccccc1" has a reported TGI of > 100 µM

Just so you know, measured TGI for "CC(C)CC(=O)OC[n+]1ccc(-c2c(COC(=O)NC(C)C)c(COC(=O)NC(C)C)c3n2CCC3)cc1" came out at > 100 µM

Query "N=c1n(C(=O)N2CCCC2)c2cc(Cl)ccc2n1C1=NCCN1" yields TGI of > 100 µM

Entry under test: "Clc1cc2nsnc2c(Cl)n1" . Its TGI was 49.3 µM

Form: molecule = "O=C(O)CSc1ccc([N+](=O)[O-])cc1[N+](=O)[O-]" ; TGI = > 100 µM

---

Exercise: state measured TGI for each of the compounds provided.
- Test system: DU-145 prostate
- Assay notes: NCI tumour cell line growth inhibition, 48 h

Looking up CCCCCN(CCCCC)CC(O)c1cc(C)c2ccc3cc(C(C)C)ccc3c2c1 (stereo not drawn) , I see its TGI listed as 3.37 µM

The compound "O=CN/C=C/c1cc(O)ccc1O" showed TGI equal to > 100 µM

TGI recorded for this compound, "CC1=C(C)[C@@]2(C)O[C@@]2(C)O[C@@]2(C)O[C@@]12C" , is > 100 µM

TGI reading for "COc1cc([C@@H]2c3cc4c(cc3[C@@H](Nc3ccc([N+](=O)[O-])cc3C(=O)c3ccccc3)[C@H]3COC(=O)[C@H]23)OCO4)cc(OC)c1OC" : > 100 µM

Record "CCC[C@@H](O)C[C@@H]1CCC[C@H](C[C@@H](O)CC)N1C" . Reported TGI: > 100 µM

// TGI value for "Clc1ccc(/C=C/c2nc3ccccc3s2)cc1Cl" : > 100 µM

CC12CCC(O)CC1CCC1C2CCC2(C)C(C3=CC(=O)OC3)CCC12O (stereo not drawn) has a reported TGI of 2.85 µM

Lab book: TGI of "CCCCCN(CCCCC)CCCNc1c2c(nc3ccc(Cl)cc13)CCCC2" noted as 13.4 µM

Per the records, this compound ( "CCCN=C1CCN(Cc2ccccc2)c2ccccc2N1" ) has TGI equal to > 100 µM

// recorded TGI for "COc1ccc2c(=O)c(O)c(-c3ccc(OC)c(OC)c3)oc2c1" : > 100 µM

Quick note, TGI for "N=c1n(C(=O)N2CCCC2)c2cc(Cl)ccc2n1C1=NCCN1" landed at > 100 µM

Memo: CNC(=O)OCC1=C(COC(=O)NC)C(C)N(c2ccc(OC)cc2)C1 (stereo not drawn) , reported TGI: > 100 µM

Per the records, this compound ( CC[C@@]1(O)C[C@H](OC2CC(N(C)C)C(O)C(C)O2)c2c(O)c3c(c(O)c2[C@H]1OC1CC(N(C)C)C(O)C(C)O1)C(=O)c1cccc(O)c1C3=O (stereo partly drawn) ) has TGI equal to 11.3 µM

Reported TGI ( "FC(F)(F)c1cc(Cl)cnc1N/N=C(/c1ccccc1)c1ccccn1" ) = > 100 µM

The recorded TGI for entry O=C1CC(c2ccc3c(c2)OCO3)Nc2ccccc21 (stereo not drawn) equals 12.6 µM

According to the records, this compound "CC(C)c1ccc(/C=C2/C=C(c3ccc4ccccc4c3)OC2=O)cc1" displays TGI of > 100 µM

Entry "Oc1cc2c3c(c1)c1cc4c(cc1c[n+]3CC2)OCO4" ; TGI = > 42.9 µM

The recorded TGI for "O=C1C(Cl)=C(Nc2cccc(Cl)c2)C(=O)N1Cc1ccc(Cl)cc1Cl" is 18.2 µM

Memo: OCc1ccc(N2CCC2c2ccc(F)cc2)cc1Cl (stereo not drawn) , reported TGI: > 100 µM

Entry CSc1nc2c(c(=O)[nH]1)N=C1c3ccccc3C(=O)C1C(c1ccccc1)N2 (stereo not drawn) , TGI reported as > 100 µM

Item: "COc1ccc(C(=O)Cn2c(C(=O)c3ccccc3)nc(-c3ccc(OC)cc3)c2-c2ccc(OC)cc2)cc1" | TGI: > 100 µM

Given item "C=C(CN1CCN(c2ccc(Cl)cc2F)CC1)c1ccc(C(=O)Nc2ccccc2N)cc1" , the value recorded as its TGI is > 100 µM

Reported TGI for Cc1ccc(SCC(CSCCO)OCn2cnc3c2NC(N)=NC32OCCO2)cc1 (stereo not drawn) was > 100 µM

Item: Cc1cn(C2CC(N(O)C(N)=O)C(CO)O2)c(=O)[nH]c1=O (stereo not drawn) | TGI: > 100 µM

GET /value?item= CC1=C(C(=O)Nc2ccc(Cl)c(Cl)c2)C(c2cccc(Oc3ccccc3)c2)NC(=S)N1 (stereo not drawn) &field=TGI returns 13.3 µM

The recorded TGI for entry CCN(CCO)CC1CCCC2CCCCC21 (stereo not drawn) equals > 100 µM

Record "O=C1C(=Cc2ccc(O)cc2)N=C(c2ccccc2)N1n1c(-c2ccccc2)nc2ccccc2c1=O" . Reported TGI: > 100 µM

The compound "Cc1nc2ccccc2c(N)c1-c1cc(C)c2c(C)nc3ccccc3c2n1" showed TGI equal to 1.67 µM

GET /value?item= COc1ccc(/C=C2\CCC(C)C3=C2NC(=S)NC3c2ccc(OC)c(OC)c2)cc1OC (stereo not drawn) &field=TGI returns > 31.6 µM

Noted for COc1ccc(C(OCC2OC(n3cc(C)c(=O)[nH]c3=O)CC2n2cc(Cn3cc(I)c(=O)[nH]c3=O)nn2)(c2ccccc2)c2ccccc2)cc1 (stereo not drawn) : its TGI reads > 100 µM

Memo: "Cc1ccsc1/C=N/Nc1ncccn1" , reported TGI: > 100 µM

Reported TGI ( "C=C1c2nc3ccccc3n2C=C(c2ccccc2)N1c1ccc([N+](=O)[O-])cc1" ) = > 74.7 µM

Reported TGI of "O=c1[nH][nH]c(=O)n1Cc1ccccc1Cn1c(=O)[nH][nH]c1=O" : > 100 µM

TGI reported for this compound "O=C(NNC(=O)c1ccccc1SSc1ccccc1C(=O)NNC(=O)c1ccccc1S)c1ccccc1S" : > 54.7 µM

Query "CC(C)CC(=O)OC[n+]1ccc(-c2c(COC(=O)NC(C)C)c(COC(=O)NC(C)C)c3n2CCC3)cc1" yields TGI of > 100 µM

Reported TGI of Cc1coc2c1CC1(C)C(CCC(O)C1C)C2 (stereo not drawn) : > 100 µM

// TGI value for "NNC(=O)Nc1cccnc1" : > 100 µM

response.value for "COc1ccc2c(C3=C(c4cn(C)c5ccccc45)C(=O)NC3=O)cn(C)c2c1" (field: TGI) = > 25 µM

Record O=C(CC1(O)C(=O)Nc2c(Cl)cc(Cl)cc21)c1ccc(Br)cc1Br (stereo not drawn) , field TGI: 32.3 µM

Record "C[C@@]12C[C@@H](c3ccccc3O1)N1CCCCSC1=N2" . Reported TGI: > 100 µM

The compound listed as "COc1cc(/C=C2\S/C(=N/Nc3nc(-c4ccc(Br)cc4)cs3)NC2=O)cc(OC)c1OC" shows TGI equal to 52.4 µM

get_value(item= "O=C(O)c1cccc2c1/C(=N/Nc1ccccc1)CC2" , readout=TGI) returns > 100 µM

Lookup result for "Nc1cccc2cc(Cl)cnc12" ; measured TGI: > 100 µM

All figures here come from PubChem BioAssay (NCI).
